The origin of these recorded values is patent US20180162928A1.

A collection of binders and their measured log10 of ELISA HSA (RSU)
- assayedTarget: human serum albumin (human) (UniProt P02768)
- Sequence (P02768 25-609 limits assumed): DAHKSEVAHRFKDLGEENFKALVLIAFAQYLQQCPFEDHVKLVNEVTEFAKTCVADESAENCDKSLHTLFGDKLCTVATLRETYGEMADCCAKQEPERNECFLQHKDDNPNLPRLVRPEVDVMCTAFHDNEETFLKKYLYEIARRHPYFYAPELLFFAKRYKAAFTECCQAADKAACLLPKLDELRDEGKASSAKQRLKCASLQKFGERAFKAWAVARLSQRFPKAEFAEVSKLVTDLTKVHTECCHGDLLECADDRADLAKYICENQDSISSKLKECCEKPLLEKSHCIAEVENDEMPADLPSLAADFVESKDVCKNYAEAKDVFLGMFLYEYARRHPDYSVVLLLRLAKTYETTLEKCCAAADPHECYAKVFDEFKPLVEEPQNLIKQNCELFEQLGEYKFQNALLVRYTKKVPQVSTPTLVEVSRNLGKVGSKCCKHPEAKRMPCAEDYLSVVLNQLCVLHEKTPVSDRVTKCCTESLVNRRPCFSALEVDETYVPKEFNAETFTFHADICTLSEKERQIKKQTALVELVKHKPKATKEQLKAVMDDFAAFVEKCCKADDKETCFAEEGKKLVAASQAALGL
- testMethodNotes: ELISA, lysate on plate-bound antigen
Note: values are log10 of ELISA HSA (RSU) expressed in RSU.

In the examples that follow, each entry is paired with its recorded log10 of ELISA HSA (RSU).
binder: ISOP121AR5P1F7 (designed binder, not shown: small tags and cut ends, FN3 domain; E. coli lysate in the ELISA) LPAPKNLVVSRVTEDSARLSWQEHWDTSSNFDSFLIQYQESEKVGEAIVLTVPGSERSYDLTGLKPGTEYTISIYGVYNRKVLFYSNPLSAIFTT
log10 of ELISA HSA (RSU): 3.02

binder: ISOP194GR9P1F6 (designed binder, not shown: small tags and cut ends, FN3 domain; E. coli lysate in the ELISA) LPAPKNLVVSRVTEDSARLSWTAPDAAFDSFWIDYWERLSEGEAIALRVPGSERSYDLTGLKPGTEYYVWIVGVKGGKFSQPLRAWFTT
log10 of ELISA HSA (RSU): 3.08

binder: ISOP121BR5P1E2 (designed binder, not shown: small tags and cut ends, FN3 domain; E. coli lysate in the ELISA) LPAPKNLVVSRVTEDSARLSWWFPLEWFDSFLIQYQESEKVGEAIVLTVPGSERSYDLTGLKPGTEYTVSIYGVYTREHKSVWASNPLSAIFTT
log10 of ELISA HSA (RSU): 2.86

binder: ISOP194HR9P1B10 (designed binder, not shown: small tags and cut ends, FN3 domain; E. coli lysate in the ELISA) LPAPKNLVVSRVTEDSARLSWTAPDAAFDSFPIRYYERANGEAIVLTVPGSERSYDLTGLKPGTEYIVWIYGVKGGGRSGPLSAIFTT
log10 of ELISA HSA (RSU): 3.26

binder: ISOP121AR5P1E7 (designed binder, not shown: small tags and cut ends, FN3 domain; E. coli lysate in the ELISA) LPAPKNLVVSRVTEDSARLSWHVYHEIDYFDSFLIQYQESEKVGEAIVLTVPGSERSYDLTGLKPGTEYTVSIYGVYQRKVEFYSNPLSAIFTT
log10 of ELISA HSA (RSU): 3.82

binder: ISOP121BR5P1F7 (designed binder, not shown: small tags and cut ends, FN3 domain; E. coli lysate in the ELISA) LPAPKNLVVSRVTEDSARLSWHDATWQYFDSFLIQYQESEKVGEAIVLTVPGSERSYDLTGLKPGTEYTVSIYGVFHRKHIDFVSNPLSAIFTT
log10 of ELISA HSA (RSU): 2.94

Ask: // log10 of ELISA HSA (RSU) lookup, key: ISOP194BR9P1E4 (designed binder, not shown: small tags and cut ends, FN3 domain; E. coli lysate in the ELISA) LPAPKNLVVSRVTEDSARLSWTTAFHNEYFDSFLIQYQESEKVGEAIVLTVPGSERSYDLTGLKPGTEYTVSIYGVYQRGYHNWFSNPLSAIFTT
Reply: 3.16

Ask: // log10 of ELISA HSA (RSU) lookup, key: ISOP121BR5P1D3 (designed binder, not shown: small tags and cut ends, FN3 domain; E. coli lysate in the ELISA) LPAPKNLVVSRVTEDSARLSWYEDNTERFDSFLIQYQESEKVGEAIVLTVPGSERSYDLTGLKPGTEYTVSIYGVYIRVQVLWFSNPLSAIFTT
Reply: 2.90

Ask: // log10 of ELISA HSA (RSU) lookup, key: ISOP121GR5P1F6 (designed binder, not shown: small tags and cut ends, FN3 domain; E. coli lysate in the ELISA) LPAPKNLVVSRVTEDSARLSWTAPDAAFDSFDIRYHEYTWPGEAIVLLVPGSERSYDLTGLKPGTEYGVYINGVKGGFRSKPLFAWFTTGG
Reply: 2.81
